details: 323.15 K; 101.33 kPa; Liquid; Direct current cell with electrodes
Each record is given Yes if its reported electrical conductivity is strictly below 0.4 S/m. Records at or above 0.4 S/m are given No.

Just wondering, is electrical conductivity of `COCC[N+]1(C)CCOCC1.O=S(=O)([N-]S(=O)(=O)C(F)(F)F)C(F)(F)F` below 0.4 S/m?
Yes

Follow-up item: `CCC[N+](C)(C)CC.O=S(=O)([N-]S(=O)(=O)C(F)(F)F)C(F)(F)F`
Yes

Follow-up item: `COCC[N+]1(C)CCCC1.O=S(=O)([N-]S(=O)(=O)C(F)(F)F)C(F)(F)F`
No

Follow-up item: `COCC[N+]1(C)CCCCC1.O=S(=O)([N-]S(=O)(=O)C(F)(F)F)C(F)(F)F`
Yes

====

conditions: 303.15 K, Ring tensiometer
Give measured surface tension liquid-gas for each item. Keep answers brief.
Reply with just the number (in mN/m).

Bench note: what surface tension liquid-gas did `CC[N+](C)(C)CCOC.O=S(=O)([N-]S(=O)(=O)C(F)(F)F)C(F)(F)F` show?
47.32

Follow-up item: `CCC[N+](C)(C)CC.O=S(=O)([N-]S(=O)(=O)C(F)(F)F)C(F)(F)F`
45.84

Follow-up item: `COCC[N+]1(C)CCCCC1.O=S(=O)([N-]S(=O)(=O)C(F)(F)F)C(F)(F)F`
44.06

Follow-up item: `COCC[N+]1(C)CCOCC1.O=S(=O)([N-]S(=O)(=O)C(F)(F)F)C(F)(F)F`
49.3

Follow-up item: `COCC[N+]1(C)CCCC1.O=S(=O)([N-]S(=O)(=O)C(F)(F)F)C(F)(F)F`
48.62

====

Give measured electrical conductivity for each item. Keep answers brief.
details: 298.15 K; 101.33 kPa; Liquid; Direct current cell with electrodes
Reply with just the number (in S/m).

Bench note: what electrical conductivity did `COCC[N+]1(C)CCCC1.O=S(=O)([N-]S(=O)(=O)C(F)(F)F)C(F)(F)F` show?
0.345

Follow-up item: `CCC[N+](C)(C)CC.O=S(=O)([N-]S(=O)(=O)C(F)(F)F)C(F)(F)F`
0.248

Follow-up item: `COCC[N+]1(C)CCOCC1.O=S(=O)([N-]S(=O)(=O)C(F)(F)F)C(F)(F)F`
0.065

Follow-up item: `COCC[N+]1(C)CCCCC1.O=S(=O)([N-]S(=O)(=O)C(F)(F)F)C(F)(F)F`
0.209

Follow-up item: `CC[N+](C)(C)CCOC.O=S(=O)([N-]S(=O)(=O)C(F)(F)F)C(F)(F)F`
0.288
